# System: COLO 205 colon
# Experimental Details: NCI tumour cell line growth inhibition, 48 h
Some compounds, each annotated with its measured TGI.

Compound: Cc1ccc(O)c(-c2csc(NCN3CCN(CNc4nc(-c5cc(C)ccc5O)cs4)CC3)n2)c1
TGI: > 100 µM
//
Compound: CN(C1=NS(=O)(=O)N=C(N(C)c2ccccc2)O1)c1ccccc1
TGI: 46 µM
//
Compound: O=C(O)CN(c1ccccc1)S(=O)(=O)c1ccc(Cl)cc1
TGI: > 100 µM
//
Compound: CCn1c(-c2ccc(C)cc2)cs/c1=N\C(P(=O)(O)O)P(=O)(O)O
TGI: > 100 µM

Notebook: COC1CC2C=CC3C4OC2(/C(C)=C/C(C)C(C(C)O)OC1=O)C3C(O)C(C)C4OC(=O)c1ccc[nH]1 (stereo not drawn) , TGI read as > 100 µM

Notebook: CC1OC(O[C@H]2/C=C/C=C/C=C/C=C/C=C/C=C/C=C/[C@H](C)[C@@H](O)[C@@H](C)[C@H](C)OC(=O)C[C@H](O)C[C@H](O)CC[C@@H](O)[C@H](O)C[C@H](O)C[C@]3(O)C[C@H](O)[C@@H](C(=O)O)[C@H](C2)O3)C(O)C(N)C1O (stereo partly drawn) , TGI read as 45.2 µM

Notebook: `COc1ccccc1N1CCN(C(=O)c2ccc(NS(=O)(=O)c3cccc4cccnc34)cc2)CC1` , TGI read as > 100 µM

Notebook: `COc1ccc(Nc2nc(N)c(C(=O)c3ccccc3)s2)cc1` , TGI read as 0.333 µM

From: PubChem BioAssay (NCI)
